Entry source: patent US10988459B2

target: human RIP1 kinase domain (2-375) (Homo sapiens (Human)); assay: biochemical; type: biochemical; conditions: human RIP1 kinase domain (2-375), 50 uM ATP, 2 hours incubation, Transcreener ADP assay; read-out: RIP1 Ki
attribute.measured: pKi
Expect pKi as a plain number equal to -log10 of the molar concentration.

Use the examples below as a reference point.
>>> readout_value("CN1C(=O)C(NC(=O)c2ncn(Cc3ccccc3)n2)CCn2ccnc21 (stereo not shown)")
6.91
>>> readout_value("CN1C(=O)[C@@H](NC(=O)c2n[nH]c3ccc(C4CC4)nc23)COc2ccccc21")
6.61
>>> readout_value("Cc1cc2n(n1)CC[C@H](NC(=O)c1ncn([C@@H](C)c3ccccc3)n1)C(=O)N2C")
7.32

Give its pKi value. Item: Cc1cc(F)c2c(c1)OC[C@H](NC(=O)c1n[nH]c3c1C[C@@H](C(F)(F)F)CC3)C(=O)N2 7.78

====

molecular target: human RIP1 kinase domain (2-375) (Homo sapiens (Human)); experiment: biochemical; format: biochemical; conditions: Table 5; apparent Ki (Morrison tight-binding fit); 50 nM RIP1 kinase domain, 50 uM ATP, 2 hours incubation; read-out: Ki
attribute.measured: log10 of Ki (log10 of the value in µM)
Remember, log10 of Ki, in µM.

Use the examples below as a reference point.
>>> readout_value("CCOCCc1cc2n(n1)CC[C@H](NC(=O)c1ncn(Cc3ccccc3F)n1)C(=O)N2C")
-1.14
>>> readout_value("COCCOCCc1cc2n(n1)CC[C@H](NC(=O)c1ncn(Cc3ccccc3F)n1)C(=O)N2C")
-1.11
>>> readout_value("CN1C(=O)[C@@H](NC(=O)c2nc3n(n2)CCN(C)C3c2ccccc2)COc2ccccc21 (single isomer, unassigned) [Example 730]")
-0.95
>>> readout_value("CN1C(=O)[C@@H](NC(=O)c2cc3c(cn2)cnn3CCC(F)F)COc2ccccc21")
-1.14
>>> readout_value("CN1C(=O)[C@@H](NC(=O)c2ncn(Cc3ccccc3)n2)CCn2nc(CCN3CCOCC3)cc21")
-0.94
>>> readout_value("CN1C(=O)[C@@H](NC(=O)c2ncn(Cc3ccccc3F)n2)CCn2nc(CCN3CCOCC3)cc21")
-1.13

Give its log10 of Ki value. Item: Cc1cc2n(n1)CC[C@H](NC(=O)c1cc3c(-c4ccccc4)cccn3n1)C(=O)N2C -1.89

Give its log10 of Ki value. Item: COC1CN(CCc2cc3n(n2)CC[C@H](NC(=O)c2ncn(Cc4ccccc4F)n2)C(=O)N3C)C1 -0.76

Give its log10 of Ki value. Item: C[C@]1(C(F)(F)F)OCc2cnc(C(=O)N[C@H]3CCc4cc(F)cc(F)c4NC3=O)cc21 -1.64

Give its log10 of Ki value. Item: Cc1cc2n(n1)CC[C@H](NC(=O)c1cn(Cc3ccccc3)cn1)C(=O)N2C -1.36

Give its log10 of Ki value. Item: C[C@]1(C(F)(F)F)OCc2cnc(C(=O)N[C@H]3CCc4cc(F)cc(F)c4NC3=O)nc21 -1.38

Give its log10 of Ki value. Item: CN1C(=O)[C@@H](NC(=O)c2nc3n(n2)[C@@H](c2ccccc2)CCC3)COc2ccccc21 (single isomer, unassigned) [Example 790] -0.83

Give its log10 of Ki value. Item: CN1C(=O)C(NC(=O)c2ncn(Cc3ccccc3)n2)CCn2nc(-c3cnn(C)c3)cc21 (racemic) -0.77

Give its log10 of Ki value. Item: CN1C(=O)[C@@H](NC(=O)c2ccn(Cc3ccccc3)n2)CCn2nccc21 -0.86

Give its log10 of Ki value. Item: CN1C(=O)[C@@H](NC(=O)c2ncn(Cc3ccccc3)n2)CCn2nc(CN3CC(F)C3)cc21 [Example 782] -0.85

====

molecular target: human RIP1 kinase domain (2-375) (Homo sapiens (Human)); experiment: biochemical; format: biochemical; details: Table 1; apparent Ki (Morrison tight-binding fit); 50 nM RIP1 kinase domain, 50 uM ATP, 2 hours incubation; read-out: RIP1 Ki
Label YES when Ki is strictly below 100 nM; at or above that, label NO.

Would you kindly verify if Ki of CN1C(=O)[C@@H](NC(=O)c2n[nH]c3c2CC2CC2C3)COc2ccccc21 (stereo partly drawn) is strictly less than 100 nM? NO

Would you kindly verify if Ki of Cc1cc2n(n1)CCC(NC(=O)c1nnc(Cc3ccccc3)[nH]1)C(=O)N2C (stereo not drawn) is strictly less than 100 nM? NO

Would you kindly verify if Ki of Cc1cc2n(n1)CCC(NC(=O)c1ncn(Cc3ccccc3)n1)C(=O)N2C (stereo not drawn) is strictly less than 100 nM? YES

Would you kindly verify if Ki of CN1C(=O)[C@@H](NC(=O)c2n[nH]c3c2CN(CC(F)(F)F)CC3)COc2ccccc21 is strictly less than 100 nM? NO

Would you kindly verify if Ki of CC1CCc2n[nH]c(C(=O)N[C@H]3CCc4cc(Cl)ccc4NC3=O)c2C1 (stereo partly drawn) is strictly less than 100 nM? NO

Would you kindly verify if Ki of CC1CCc2onc(C(=O)N[C@H]3COc4ccccc4N(C)C3=O)c2C1 (stereo partly drawn) is strictly less than 100 nM? NO

====

molecular target: human RIP1 kinase domain (2-375) (Homo sapiens (Human), UniProt Q13546); test: biochemical; assay type: biochemical; details: human RIP1 kinase domain (2-375), 50 uM ATP, 2 hours incubation, Transcreener ADP assay; read-out: RIP1 Ki
Sequence (Q13546 2-375): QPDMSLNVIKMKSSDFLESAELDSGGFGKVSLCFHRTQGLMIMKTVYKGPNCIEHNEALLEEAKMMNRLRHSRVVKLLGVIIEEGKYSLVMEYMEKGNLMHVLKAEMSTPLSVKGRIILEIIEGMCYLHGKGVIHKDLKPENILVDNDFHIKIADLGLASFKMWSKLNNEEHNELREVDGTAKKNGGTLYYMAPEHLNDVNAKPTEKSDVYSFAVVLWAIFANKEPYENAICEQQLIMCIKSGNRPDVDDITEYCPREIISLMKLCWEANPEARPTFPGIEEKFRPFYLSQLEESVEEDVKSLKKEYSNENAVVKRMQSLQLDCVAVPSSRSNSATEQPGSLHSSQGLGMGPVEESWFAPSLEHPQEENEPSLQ
// Ki lookup, one value per entry
Your answer should be a plain number; it is taken to be in nM.

>>> readout_value("CCC1(C)OCc2nnc(C(=O)N[C@H]3COc4ccccc4N(C)C3=O)cc21 (stereo partly drawn)")
411

Proceed to the following item.
Give its Ki value. Item: CN1C(=O)[C@@H](NC(=O)c2ncn(Cc3ccccc3)n2)CC[C@@H]2[C@H]1C2(F)F (single isomer, unassigned) 388

====

// pKi lookup, one value per entry
target: human RIP1 kinase domain (2-375) (Homo sapiens (Human), UniProt Q13546); test: biochemical; type: biochemical; details: tight-binding apparent inhibition constant; human RIP1 kinase domain (2-375) 50 nM, 50 uM ATP, 2 hours; read-out: Ki
Expect pKi as a plain number equal to -log10 of the molar concentration.

Use the examples below as a reference point.
>>> readout_value("CCc1cc2n(n1)CCC(NC(=O)c1ncn(Cc3ccccc3)n1)C(=O)N2C (centres unmarked)")
7.39
>>> readout_value("CN1C(=O)[C@@H](NC(=O)c2nc3n(n2)[C@H](c2ccccc2)CC3)CCn2nccc21 (single isomer, unassigned) [Example 614]")
6.10
>>> readout_value("Cc1ccccc1Cn1cnc(C(=O)N[C@H]2CCn3nc(C4CC4)cc3N(C)C2=O)n1")
7.68
>>> readout_value("Cc1cc2n(n1)CC[C@H](NC(=O)c1ncn(Cc3cccc(Cl)c3)n1)C(=O)N2C")
8.16
>>> readout_value("Cc1cn2c(n1)N(C)C(=O)[C@H](NC(=O)c1ncn(Cc3ccccc3)n1)CC2 (racemic)")
7.52

Give its pKi value. Item: CCCC1(C)OCc2cnc(C(=O)N[C@H]3CCn4nc(C)cc4N(C)C3=O)nc21 (some centres unmarked) 6.23

Give its pKi value. Item: Cc1cc2n(n1)CC[C@H](NC(=O)c1ncn(Cc3ncccc3C)n1)C(=O)N2C 6.51

Give its pKi value. Item: CN1C(=O)[C@@H](NC(=O)c2nc3n(n2)[C@@H](c2ccccc2F)CC3)CCn2nccc21 [Example 465] 8.05

Give its pKi value. Item: CN1C(=O)[C@H](NC(=O)c2ncn(Cc3ccc(F)cc3)n2)CCn2nc(C3CC3)cc21 (stereo in doubt) 5.04

Give its pKi value. Item: CCc1cc2n(n1)CCC(NC(=O)c1ncn(Cc3ccccc3F)n1)C(=O)N2C (centres unmarked) 7.35

====

molecular target: human RIP1 kinase domain (2-375) (Homo sapiens (Human)); assay: biochemical; format: biochemical; details: tight-binding apparent inhibition constant; human RIP1 kinase domain (2-375) 50 nM, 50 uM ATP, 2 hours; read-out: Ki
attribute.measured: Ki (µM)
Your answer should be a plain number; it is taken to be in µM.

Use the examples below as a reference point.
>>> readout_value("Cc1cc2n(n1)CC[C@H](NC(=O)c1ncn(CC3(C)CCC3)n1)C(=O)N2C [Example 560]")
0.14
>>> readout_value("Cc1ncc2n1CC[C@@H](NC(=O)c1ncn(Cc3cc(F)ccc3F)n1)C(=O)N2C [Example 577]")
0.08
>>> readout_value("CN1C(=O)[C@@H](NC(=O)c2nccc(C3(O)CCCC3)n2)COc2ccccc21 [Example 509]")
0.44
>>> readout_value("CN1C(=O)[C@@H](NC(=O)c2nc3n(n2)[C@@H](c2cnn(C)c2)CCC3)CCn2nccc21 (single isomer, unassigned) [Example 404]")
0.318
>>> readout_value("CN1C(=O)[C@@H](NC(=O)c2ncn(Cc3ncccc3F)n2)CCn2nc(C3CC3)cc21 [Example 655]")
0.14
>>> readout_value("CN1C(=O)[C@@H](NC(=O)c2nc3n(n2)[C@H](C2CCOCC2)CCC3)COc2ccccc21 (racemic) [Example 410]")
0.121
>>> readout_value("CN1C(=O)[C@@H](NC(=O)c2nc3n(n2)[C@@H](C(F)(F)F)CCC3)COc2ccccc21 (single isomer, unassigned) [Example 425]")
0.471

Proceed to the following item.
Give its Ki value. Item: CN1C(=O)[C@@H](NC(=O)c2nc3n(n2)CC[C@H]3c2ccccc2)COc2ccccc21 [Example 572] 0.45
